Entries and their Screen values follow.
System: EPHB1 kinase domain
Assay: pTyr-Var library bacterial peptide display kinase screen (enrichment scores);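 note: log2 fold change in enrichment of variant over reference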
Assay type: biochemical, human
Details: sheet EPHB1; effect of the variant peptide relative to its reference peptide in the pTyr-Var library screen (enrichment scores)
// return a plain number; no unit text

See these solved cases before continuing.
substance	assay_system	Screen
LEDPMYDIIRD [RP9_Y142_H137L]	EPHB1 kinase domain	0.4802
FNSLLYQVPTS [CALCOCO2_Y358_P357L]	EPHB1 kinase domain	4.751
Ac-GNLLIYTELGK-NH2 [HGD_Y166_F169L, pTyr-Var library variant peptide, non-canonical c-Abl substrate]	EPHB1 kinase domain	1.156
ITSLLYHVVGW [GBA_Y412_N409S]	EPHB1 kinase domain	-0.08421

Read the next record carefully.
-- ask Given the substance AAAAVYTFLPD [MYORG_Y36_M35V] , what is its reported Screen?
-- reply 0.3532

====

Target: c-Src kinase domain (Homo sapiens, UniProt P12931)
Assay: pTyr-Var library bacterial peptide display kinase screen (enrichment scores);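 note: log2 fold change in enrichment of variant over reference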
Format: biochemical
Conditions: sheet "Src"; effect of the variant peptide relative to its reference peptide in the pTyr-Var library screen
assay_metric: Screen
The answer should be a number; do not append a unit.

substance	result_number
Ac-GNLLIYTELGK-NH2 [HGD_Y166_F169L, pTyr-Var library variant peptide, non-canonical c-Abl substrate]	-0.3242
Ac-IGEGTYRQVFK-NH2 [CDK13_Y716_G717R_YF, pTyr-Var library variant phosphosite peptide]	-4.535
FNSLLYQVPTS [CALCOCO2_Y358_P357L]	2.72

Could you now look at the following substance, please?
-- ask Item ITSLLYHVVGW [GBA_Y412_N409S] has what recorded Screen?
-- reply -0.3669

====

Test system: EPHB2 kinase domain
Assay: pTyr-Var library bacterial peptide display kinase screen (enrichment scores);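 note: log2 fold change in enrichment of variant over reference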
Format: biochemical, human
Conditions: sheet EPHB2; effect of variant peptide relative to its reference peptide in the pTyr-Var library screen (enrichment scores)
Reported values of Screen for individual entries
// keep it numeric: no unit symbol after the value

-- ask Endpoint output: Screen of LEDPMYDIIRD [RP9_Y142_H137L] . Value?
-- reply 0.7516

====

Test system: EPHB2 kinase domain
Test: pTyr-Var library bacterial peptide display kinase screen (enrichment scores);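 note: log2 fold change in enrichment of variant over reference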
Assay type: biochemical, human
Settings: sheet EPHB2; effect of variant peptide relative to its reference peptide in the pTyr-Var library screen (enrichment scores)
assay_metric: Screen
Would you mind answering with just the numeric figure?

substance	assay_metric	result_number
AAAAVYTFLPD [MYORG_Y36_M35V]	Screen	0.71
Ac-GNLLIYTELGK-NH2 [HGD_Y166_F169L, pTyr-Var library variant peptide, non-canonical c-Abl substrate]	Screen	1.177
FNSLLYQVPTS [CALCOCO2_Y358_P357L]	Screen	5.149

-- ask I am curious: what Screen value has been reported for ITSLLYHVVGW [GBA_Y412_N409S] ?
-- reply -0.2083

The measurements presented in this section are drawn from paper PMC10065799.
